# assaySummary: self-splicing fitness, log relative to wild type (ln ratio); higher = more splicing; Tetrahymena group I intron in knt gene, E. coli kanamycin selection, DiMSum; sequences stand for … in CUCUCU…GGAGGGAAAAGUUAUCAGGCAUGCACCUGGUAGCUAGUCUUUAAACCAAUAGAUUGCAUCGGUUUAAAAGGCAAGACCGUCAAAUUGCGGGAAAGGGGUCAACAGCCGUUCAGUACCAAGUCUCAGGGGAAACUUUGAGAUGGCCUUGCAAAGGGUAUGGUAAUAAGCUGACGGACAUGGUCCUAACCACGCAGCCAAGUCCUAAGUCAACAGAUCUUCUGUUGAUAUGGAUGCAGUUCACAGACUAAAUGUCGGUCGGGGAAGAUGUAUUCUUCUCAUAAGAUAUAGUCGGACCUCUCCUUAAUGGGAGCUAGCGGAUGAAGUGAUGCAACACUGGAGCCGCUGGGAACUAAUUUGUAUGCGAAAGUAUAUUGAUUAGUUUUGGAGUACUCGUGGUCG;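 note: selection with 25 µg/mL kanamycin versus none on LB agar overnight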
# settings: 30 °C
measurementType: self-splicing fitness (ln)

1. GGGCAGCAAUAUUACGGCUU ... -0.964
2. CGCCAGCAAUAUUACGAUUG ... -0.454
3. UCACAGCAAUAUUACGGACG ... -1.22
4. UACCAGCAAUAUUACGCCCG ... -0.0448
5. CCAGAGCAAUAUUACGCUUA ... -3.34
6. AAAGAGCAAUAUUACGGGCC ... -2.09
7. CGAUAGCAAUAUUACGUCUU ... -1.49
8. ACGCAGCAAUAUUACGCAAA ... -2.51
9. GUCUAGCAAUAUUACGGCCU ... -2.09
10. UCCGAGCAAUAUUACGUUAG ... -3.14
11. AGAUAGCAAUAUUACGACGA ... -0.422
12. CAGGAGCAAUAUUACGGAUC ... -4.29
13. AUGUAGCAAUAUUACGCAGG ... -2.06
14. AAGAAGCAAUAUUACGGACC ... -1.28
15. CGGUAGCAAUAUUACGGAUC ... -4.27
16. CACGAGCAAUAUUACGGCUA ... -2.19

---

# assaySummary: self-splicing fitness, log relative to wild type (ln ratio); higher = more splicing; Tetrahymena group I intron in knt gene, E. coli kanamycin selection, DiMSum; sequences stand for … in CUCUCU…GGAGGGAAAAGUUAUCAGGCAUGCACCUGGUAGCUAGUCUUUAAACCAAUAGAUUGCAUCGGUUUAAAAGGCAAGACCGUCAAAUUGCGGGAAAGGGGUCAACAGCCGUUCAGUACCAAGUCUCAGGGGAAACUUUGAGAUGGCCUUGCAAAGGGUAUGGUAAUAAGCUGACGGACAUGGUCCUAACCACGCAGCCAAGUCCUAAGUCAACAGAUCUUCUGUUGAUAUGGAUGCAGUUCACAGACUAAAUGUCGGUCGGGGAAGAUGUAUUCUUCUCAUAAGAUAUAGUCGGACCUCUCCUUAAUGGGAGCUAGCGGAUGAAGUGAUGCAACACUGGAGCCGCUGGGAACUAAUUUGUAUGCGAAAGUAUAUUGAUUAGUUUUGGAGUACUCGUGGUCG
# settings: 30 °C
measurementType: self-splicing fitness (ln)

1. AAACAGCAAUAUUACGAUGC ... -2.27
2. ACUGAGCAAUAUUACGCUUU ... -2.53
3. GAUCAGCAAUAUUACGGACU ... -0.52
4. UUAGAGCAAUAUUACGUUAA ... -1.9
5. GCCAAGCAAUAUUACGCCGU ... -2.07
6. GCGGAGCAAUAUUACGUGGU ... -3.54
7. CGCGAGCAAUAUUACGUGAG ... -4.51
8. AAUUAGCAAUAUUACGUUAC ... -3.18

Provenance of the data: the supplement of paper PMC7877785
